Each record here notes measured shrunken log2 fold change.
system: Escherichia coli TOP10; assay: shrunken log2 fold change of peptide-encoding DNA abundance (4.5 h post-induction vs induction); higher = less antimicrobial activity (less host growth inhibition); details: time post-induction: 4.5 h; library: site-saturation at positions 5, 18, 19, 20;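 note: peptides expressed intracellularly from a pBAD plasmid library in pooled LB shake-flask culture, induced with 0.3% L-arabinose, DNA abundance read by NGS, three biological replicates, DESeq2 with apeglm shrinkage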
// no unit, no text: just the number

monomer_sequence=RRIRQRPPRLPRPRPRPIKRPRP quantity="shrunken log2 fold change" measured=-0.354
monomer_sequence=RRIRGRPPRLPRPRPRPFWAPRP quantity="shrunken log2 fold change" measured=0.325
monomer_sequence=RRIRMRPPRLPRPRPRPAGAPRP quantity="shrunken log2 fold change" measured=1.28
monomer_sequence=RRIRWRPPRLPRPRPRPHRHPRP quantity="shrunken log2 fold change" measured=-0.131
monomer_sequence=RRIRSRPPRLPRPRPRPDWTPRP quantity="shrunken log2 fold change" measured=-0.179
monomer_sequence=RRIRWRPPRLPRPRPRPYVKPRP quantity="shrunken log2 fold change" measured=-0.436

Input RRIRKRPPRLPRPRPRPAPFPRP , output reported shrunken log2 fold change. 0.659

Input RRIRQRPPRLPRPRPRPHNGPRP , output reported shrunken log2 fold change. -0.072

Input RRIRQRPPRLPRPRPRPPHMPRP , output reported shrunken log2 fold change. 0.287

Input RRIRPRPPRLPRPRPRPFMVPRP , output reported shrunken log2 fold change. -0.478

Input RRIRLRPPRLPRPRPRPCPLPRP , output reported shrunken log2 fold change. -0.333

Input RRIRGRPPRLPRPRPRPWFQPRP , output reported shrunken log2 fold change. 0.0619

Input RRIRMRPPRLPRPRPRPQRHPRP , output reported shrunken log2 fold change. 0.348

Input RRIRTRPPRLPRPRPRPGRDPRP , output reported shrunken log2 fold change. -0.0751

Input RRIRERPPRLPRPRPRPPMDPRP , output reported shrunken log2 fold change. -0.214
